Readings of GI50 for the listed compounds
System: UACC-62
procedure.details: NCI tumour cell line growth inhibition, 48 h
Activity calls are given as the source filed them. Rule as the data show it: active = GI50 up to about 1.1 µM and inactive = higher.
parameter.measured: GI50

[[record]]
compound = "C[C@H]1COC2=C1C(=O)C(=O)c1c2ccc2c1CCCC2(C)C [CRYPTOTANSHINONE]"
target_system = "UACC-62"
parameter_measured = "GI50"
experimental_value = "2.03 µM (inactive)"

[[record]]
compound = "N#CCC(=O)N/N=C(\\CCN1CCCC1)CC(c1ccccc1)c1c(O)c2ccccc2oc1=O (centres undefined)"
target_system = "UACC-62"
parameter_measured = "GI50"
experimental_value = "> 80.2 µM (inactive)"

[[record]]
compound = "Cc1nc(C(N)=S)sc1/C(CC(=O)C(=O)Nc1cccc2ccc(O)cc12)=N\\NC(=O)c1ccncc1"
target_system = "UACC-62"
parameter_measured = "GI50"
experimental_value = "29.5 µM (inactive)"

[[record]]
compound = "CN(CCCNC(=O)c1c2ccc3ccccc3c2nn1C)CCCNC(=O)c1c2ccc3ccccc3c2nn1C"
target_system = "UACC-62"
parameter_measured = "GI50"
experimental_value = "1.87 µM (inactive)"

[[record]]
compound = "CCOC(=O)c1nc2ccccc2nc1Oc1ccc(F)cc1"
target_system = "UACC-62"
parameter_measured = "GI50"
experimental_value = "> 100 µM (inactive)"

[[record]]
compound = "COc1cc([C@@H]2c3cc4c(cc3C[C@H]3COC(=O)[C@@H]32)OCO4)cc(OC)c1OC [DESOXYPODOPHYLLOTOXIN]"
target_system = "UACC-62"
parameter_measured = "GI50"
experimental_value = "0.00912 µM (active)"

[[record]]
compound = "Cc1coc2c1C[C@@]1(C)[C@H](CCC[C@@H]1C)[C@H]2O"
target_system = "UACC-62"
parameter_measured = "GI50"
experimental_value = "69.5 µM (inactive)"

[[record]]
compound = "O=c1[nH]c(Nc2nc3ccccc3[nH]2)nc(O)c1Cc1ccccc1"
target_system = "UACC-62"
parameter_measured = "GI50"
experimental_value = "> 100 µM (inactive)"

[[record]]
compound = "CC(C)(C)OP(=O)(OC(C)(C)C)C(O)c1ccc(/C=C(\\C#N)C(N)=O)cc1 (centres undefined)"
target_system = "UACC-62"
parameter_measured = "GI50"
experimental_value = "> 100 µM (inactive)"


###

System: RPMI-8226
procedure.details: NCI tumour cell line growth inhibition, 48 h
The source made the active and inactive calls. Rule as the data show it: active = GI50 up to about 1.1 µM and inactive = higher.
Readings of GI50 for the listed compounds
parameter.measured: GI50

[[record]]
compound = "CCn1c2ccccc2c(=O)c2c(OC)ccc(OC)c21"
experimental_value = "35.5 µM (inactive)"

[[record]]
compound = "Cc1cc(S(=O)(=O)Nc2nc3ccccc3n2-c2ccccc2)c(S)cc1Cl"
experimental_value = "> 100 µM (inactive)"

[[record]]
compound = "N#CCC(=O)N/N=C(\\CCN1CCCC1)CC(c1ccccc1)c1c(O)c2ccccc2oc1=O (stereo not given)"
experimental_value = "32.9 µM (inactive)"

[[record]]
compound = "CCOc1ccc(N/C(=C(/C(Cl)=C(/Cl)NCCN)[N+](=O)[O-])n2nnc3ccccc32)cc1"
experimental_value = "30.9 µM (inactive)"

[[record]]
compound = "CSc1ccc2c(cc1=O)[C@@H](NC(=O)c1ccc(N)cc1)CCc1cc(O)c(O)c(O)c1-2"
experimental_value = "22.3 µM (inactive)"


The measurements presented in this section are drawn from ChEMBL document CHEMBL1201862.
